This listing pairs compounds with measured -logMIC.
Tested on: Candida albicans
Test: […] activity against Candida albicans by two-fold dilution method
Format: functional
Please reply with the number alone, leaving off any unit.

Look over these answered cases.
line_notation: COC(=O)CCC[C@@H]1[C@H]2CCCN3CCC[C@@H](CN1C(=O)c1cc4ccc(Cl)cc4n1Cc1ccccc1)[C@@H]23
-logMIC: -0.951

line_notation: COC(=O)CCC[C@@H]1[C@H]2CCCN3CCC[C@@H](CN1C(=O)c1cc4ccc(Cl)cc4n1Cc1cc(C(C)(C)C)cc(C(C)(C)C)c1)[C@@H]23
-logMIC: -0.955

line_notation: COC(=O)CCC[C@@H]1[C@H]2CCCN3CCC[C@@H](CN1C(=O)c1cc4ccc(Cl)cc4n1Cc1ccccc1C#N)[C@@H]23
-logMIC: -1.05

line_notation: COC(=O)CCC[C@@H]1[C@H]2CCCN3CCC[C@@H](CN1C(=O)c1cc4ccc(Cl)cc4n1Cc1ccc(F)c(F)c1)[C@@H]23
-logMIC: -0.98

line_notation: COC(=O)CCC[C@@H]1[C@H]2CCCN3CCC[C@@H](CN1C(=O)c1cc4ccc(Cl)cc4n1Cc1cc(OC)ccc1Br)[C@@H]23
-logMIC: -0.997

line_notation: COC(=O)CCC[C@@H]1[C@H]2CCCN3CCC[C@@H](CN1C(=O)c1cc4ccc(Cl)cc4n1Cc1ccccc1[N+](=O)[O-])[C@@H]23
-logMIC: -1.05

line_notation: COC(=O)CCC[C@@H]1[C@H]2CCCN3CCC[C@@H](CN1C(=O)c1cc4ccc(Cl)cc4n1Cc1ccc4ccccc4c1)[C@@H]23
-logMIC: -1.09

line_notation: COC(=O)CCC[C@@H]1[C@H]2CCCN3CCC[C@@H](CN1C(=O)c1cc4ccc(Cl)cc4n1Cc1cccc(OCc4ccccc4)c1)[C@@H]23
-logMIC: -0.991

line_notation: COC(=O)CCC[C@@H]1[C@H]2CCCN3CCC[C@@H](CN1C(=O)c1cc4ccc(Cl)cc4n1Cc1ccc(F)cc1Br)[C@@H]23
-logMIC: -0.942

line_notation: COC(=O)CCC[C@@H]1[C@H]2CCCN3CCC[C@@H](CN1C(=O)c1cc4ccc(Cl)cc4n1Cc1ccc(F)cc1)[C@@H]23
-logMIC: -0.77

Lookup result for "COC(=O)CCC[C@@H]1[C@H]2CCCN3CCC[C@@H](CN1C(=O)c1cc4ccc(Cl)cc4n1Cc1cc(C#N)ccc1F)[C@@H]23" ; measured -logMIC: -1.02

Form: compound = "COC(=O)CCC[C@@H]1[C@H]2CCCN3CCC[C@@H](CN1C(=O)c1cc4ccccc4[nH]1)[C@@H]23" ; -logMIC = -1.16

Query "COC(=O)CCC[C@@H]1[C@H]2CCCN3CCC[C@@H](CN1C(=O)c1cc4ccc(Cl)cc4n1Cc1ccc(Br)cc1)[C@@H]23" yields -logMIC of -1.14

Entry under test: "COC(=O)CCC[C@@H]1[C@H]2CCCN3CCC[C@@H](CN1C(=O)c1cc4ccc(Cl)cc4n1Cc1cccc([N+](=O)[O-])c1)[C@@H]23" . Its -logMIC was -1.07

So, "COC(=O)CCC[C@@H]1[C@H]2CCCN3CCC[C@@H](CN1C(=O)c1cc4ccc(Cl)cc4n1Cc1ccccc1C)[C@@H]23" ? Its -logMIC was -1.29

According to the records, this compound "COC(=O)CCC[C@@H]1[C@H]2CCCN3CCC[C@@H](CN1C(=O)c1cc4ccc(Cl)cc4n1Cc1ccc(C(C)(C)C)cc1)[C@@H]23" displays -logMIC of -1.26

# -logMIC (compound: "COC(=O)CCC[C@@H]1[C@H]2CCCN3CCC[C@@H](CN1C(=O)c1cc4ccc(Cl)cc4n1Cc1ccccc1C(C)(C)C)[C@@H]23" ) is -0.898

get_value(item= "COC(=O)CCC[C@@H]1[C@H]2CCCN3CCC[C@@H](CN1C(=O)c1cc4ccc(Cl)cc4n1Cc1ccc([N+](=O)[O-])cc1)[C@@H]23" , readout=-logMIC) returns -0.846

Given item "COC(=O)CCC[C@@H]1[C@H]2CCCN3CCC[C@@H](CN1C(=O)c1cc4ccc(Cl)cc4n1Cc1cccc(C(F)(F)F)c1)[C@@H]23" , the value recorded as its -logMIC is -0.655

In plain terms, "COC(=O)CCC[C@@H]1[C@H]2CCCN3CCC[C@@H](CN1C(=O)c1cc4ccc(Cl)cc4[nH]1)[C@@H]23" has a documented -logMIC of -0.819

Summary for this compound, "COC(=O)CCC[C@@H]1[C@H]2CCCN3CCC[C@@H](CN1C(=O)c1cc4ccc(Cl)cc4n1Cc1ccc(C)cc1)[C@@H]23" : -logMIC is -0.907

For record "COC(=O)CCC[C@@H]1[C@H]2CCCN3CCC[C@@H](CN1C(=O)c1cc4ccc(Cl)cc4n1Cc1cccc4ccccc14)[C@@H]23" the listed -logMIC is -1.08

-logMIC in this record for "COC(=O)CCC[C@@H]1[C@H]2CCCN3CCC[C@@H](CN1C(=O)c1cc4ccc(Cl)cc4n1Cc1ccc(OC)cc1)[C@@H]23" : -0.905

Measured -logMIC of "COC(=O)CCC[C@@H]1[C@H]2CCCN3CCC[C@@H](CN1C(=O)c1cc4ccc(Cl)cc4n1Cc1cccc(C)c1)[C@@H]23" : -1.06

-logMIC reading for "COC(=O)CCC[C@@H]1[C@H]2CCCN3CCC[C@@H](CN1C(=O)c1cc4ccc(Cl)cc4n1Cc1c(Cl)cccc1Cl)[C@@H]23" : -0.833
